- System: 786-0 complex spheroids with HUVEC/MSC, growth % test/control
- procedure_summary: Anticancer human tumor 786-0 cell line growth inhibition [AhR];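 also: compound exposure lasted seven days before the read-out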
- test_settings: curve of first compound; second compound 3.16 µM
Rule: measured IC50 below 400 nM gets yes (1); anything equal to or greater than 400 nM gets no (0).

Does the reported IC50 of CC1COCCN1c1cc(-c2ccnn2C)c2ccnc(-c3ccn[nH]3)c2n1 (configuration not stated) + Cc1ccccc1N=Nc1ccc(NC(=O)c2ccnn2C)c(C)c1 stay below 400 nM?
yes (1)

Does the reported IC50 of COc1cc(Nc2ncc3c(n2)-c2ccc(Cl)cc2C(c2c(F)cccc2OC)=NC3)ccc1C(=O)O + CC(CO)NC(=O)c1cc(-c2ccc(Cl)cc2)nn(-c2cnn(C)c2)c1=O stay below 400 nM?
no (0)

Does the reported IC50 of CC1(C)CCC(CN2CCN(c3ccc(C(=O)NS(=O)(=O)c4ccc(NCC5CCOCC5)c([N+](=O)[O-])c4)c(Oc4cnc5[nH]ccc5c4)c3)CC2)=C(c2ccc(Cl)cc2)C1 + Cc1cncc(-c2nc(NCCc3c[nH]c4ccccc34)c3ncn(C(C)C)c3n2)c1 stay below 400 nM?
no (0)

Does the reported IC50 of O=C(C=Cn1cnc(-c2cc(C(F)(F)F)cc(C(F)(F)F)c2)n1)NNc1cnccn1 + Cc1ccccc1N=Nc1ccc(NC(=O)c2ccnn2C)c(C)c1 stay below 400 nM?
no (0)

Does the reported IC50 of COc1ccc([C@@H](O)c2cc(-c3ncnc4cc(N5CCOCC5)ccc34)c(F)cc2Cl)nn1 + CC(CO)NC(=O)c1cc(-c2ccc(Cl)cc2)nn(-c2cnn(C)c2)c1=O stay below 400 nM?
no (0)

Does the reported IC50 of CC1COCCN1c1cc(C2(S(C)(=N)=O)CC2)nc(-c2ccnc3[nH]ccc23)n1 (configuration not stated) + Cc1cncc(-c2nc(NCCc3c[nH]c4ccccc34)c3ncn(C(C)C)c3n2)c1 stay below 400 nM?
no (0)

Does the reported IC50 of Nc1ncn(C2CC(O)C(CO)S2)c(=O)n1 (configuration not stated) + Cc1cncc(-c2nc(NCCc3c[nH]c4ccccc34)c3ncn(C(C)C)c3n2)c1 stay below 400 nM?
yes (1)

Does the reported IC50 of Nc1ncn(C2CC(O)C(CO)O2)c(=O)n1 (configuration not stated) + Cc1ccccc1N=Nc1ccc(NC(=O)c2ccnn2C)c(C)c1 stay below 400 nM?
no (0)

Does the reported IC50 of CC(C)c1c(-c2ccccc2)nc2c(C#N)c[nH]n2c1=O + Cc1ccccc1N=Nc1ccc(NC(=O)c2ccnn2C)c(C)c1 stay below 400 nM?
no (0)

Where do these numbers come from? They come from PubChem BioAssay AID1919003.
